- tested_system: T1, Bovine carbonic anhydrase II (bovine, UniProt P00921 2-260)
- T1 construct: Commercial protein; also called BCA
- T1 sequence (P00921 2-260 limits assumed): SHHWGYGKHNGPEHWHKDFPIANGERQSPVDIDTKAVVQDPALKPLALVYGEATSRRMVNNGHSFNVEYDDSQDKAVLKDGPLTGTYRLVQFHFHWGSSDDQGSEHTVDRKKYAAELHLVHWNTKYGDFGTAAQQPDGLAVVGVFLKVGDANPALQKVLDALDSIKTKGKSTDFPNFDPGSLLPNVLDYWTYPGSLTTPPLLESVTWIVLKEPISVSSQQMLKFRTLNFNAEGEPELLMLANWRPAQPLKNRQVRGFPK
- experiment_notes: ITC, replicate [row SA-TRPA, left panel]
SA = 4-(aminooxymethyl)benzenesulfonamide joined by oxime ligation to the periodate-oxidised N-terminal serine
readout_name: pKd
// scale note: pKd = -log10(conc_M); give the bare number

Exercise: Bench note: what pKd did {SA}-TRPA-NH2 (also: N-terminal SA cap oxime-linked, made from oxidised N-terminal Ser) [SA-TRPA] show?
Key: 7.48

Cited source: patent US10724034B2
